- Tested on: MS2 coat protein
- Experimental Protocol: apparent KD of MS2 coat protein; designed switch direction (-1 OFF switch, 1 ON switch): 1; higher = weaker reporter binding
- Condition Details: input ligand: FMN 200 uM
Please provide measured apparent KD of MS2 coat protein for the entries that follow.
The answer is to be given in nM; state only the numeric part.

Q: Query: apparent KD of MS2 coat protein; subject: AUUUGGUAACGAGGAUAUCGUUUUUGUUUUCUUCGAGAAGGCGUUAUUGUUUAUUUCUAUUGUUACAUGAGGAUCACCCAUGUU [JR_SSNG1_Sub056] (Eterna round: R96, puzzle: Same State NG 1)
A: 15.4

Q: Try GCUCGAAUCAGAACCAACAUGAGGAUCACCCAUGUAUGUUGGUAGGAUAUCGUUUCUAAGAGAAACGAGAAGGGCCGAACGAGC [SameState NG3 #5] (Eterna round: R96, puzzle: Same State NG 3) next.
A: 224

Q: And for GCUCGAUGAAUGUCCUACAUGAGGAUCACCCAUGUACGUGGGCAGGAUAUUUACAUGCAGAGUGUAGAGAAGGGCCCAUCGAGC [SameState NG3 #62] (Eterna round: R96, puzzle: Same State NG 3) ?
A: 16.1

Q: Follow-up entry: AAACAUGAGGAUCACCCAUGUCGAUCAGAACUCUGAUCUGCUCAGGAUAUCCGAAUGCGCGUUUCGGAGAAGGGAGAAAUGUGA [Lareraedqu] (Eterna round: R96, puzzle: Same State NG 3)
A: 69.8

Q: Record: UGUUAUUAGACAGGAUAUUGAUUGUAAAGUUUUUACAUGAGGAUCACCCAUGUUGUUCAUUCGAACAAGAAGGGUCAAGUUUUU [JR_SSNG2_Sub018] (Eterna round: R96, puzzle: Same State NG 2)
A: 153

Q: What do you get for CGACACACGGCAGGAUAUGCUUAGCAAAGCUAAGCAGAAGGGCCUCAUGUCGUGGAAACCUGACAUGAGGAUCACCCAUGUCGG [Omei SS(NG)1 Cv3] (Eterna round: R96, puzzle: Same State NG 1) ?
A: 23.8

Q: What about GCCAUCGAGUGAGGAUAUGGCACCGAAACGGUGCCAGAAGGCAUGUCAAAAGACAUGAGGAUCACCCAUGUAUUAUCGAUGGCA [Mat - Same State NG 1 - JL mod - D88] (Eterna round: R96, puzzle: Same State NG 1) ?
A: 28.5

Q: Item: AAAAGAAACGCAGGAUAUGCACAUGAGGAUCACCCAUGUCCCACAGGCUCGACCGAGCCCGUGAAGCAGAAGGGUGUAAGAAAA [Redibere] (Eterna round: R96, puzzle: Same State NG 2)
A: 82.5

Q: Likewise for AUUGCUUUCGCAGGAUAUGAUGCGAAAAUUGCGUCAGAAGGGUGGAGUCUCUCAUUGCAAGAGGACAUGAGGAUCACCCAUGUC [SameState NG1 #86] (Eterna round: R96, puzzle: Same State NG 1) ?
A: 177

Q: UGGCUCAGAGCAGGAUAUAUGUGAUCACAUGAGGAUCACCCAUGUCUCGAGCUUCGGCUCGAGACAUAGAAGGGCUCUGAGCCU [SSNG2/3-B3] (Eterna round: R96, puzzle: Same State NG 2) ?
A: 110

Q: Please do the same for UUACCGCGGGUAGGAUAUGGUCACACUUCUAAAACAUGAGGAUCACCCAUGUCCGACACAUAAAGCCAGAAGGACCCGCGGCUC [Esbea] (Eterna round: R96, puzzle: Same State NG 2) as well.
A: 20.8

Q: Also GCUGCAAGGGCAGGAUAUGGGUCCAAAGCGCAAGUGCGCUUUGGUACAUGAGGAUCACCCAUGUCCCAGAAGGGCCCAAACAGC [Bientierqu] (Eterna round: R96, puzzle: Same State NG 2) ?
A: 15.5

Q: Queued: AGAUCAUGACGAGGAUAUGGUACAUGAGGAUCACCCAUGUAUGUACUAUAAUUCGAAUGAGGAAUCCAGAAGGCGUCGUGGUCA [JL SSNG2 1.15] (Eterna round: R96, puzzle: Same State NG 2)
A: 15.3

Q: GCUCGUGGUAUUGUCUACAUGAGGAUCACCCAUGUAGGUGCGGAGGAUAUCUACGUGUCUCAUGUAGAGAAGGUCGUCACGAGC [SameState NG3 #99] (Eterna round: R96, puzzle: Same State NG 3) , same question.
A: 61.2

Q: Do the same for AUUACUAACAUAGGAUAUCAUGCGAAAAUUGCGUGAGAAGGGUGGACGCUGUCAUUCUCGGAGGACAUGAGGAUCACCCAUGUC [SameState NG1 #71] (Eterna round: R96, puzzle: Same State NG 1) please
A: 118

Q: Another sequence to check: UUGAAGAAUUAAGGAUAUUGAUUACAUAUGUUUAACAUGAGGAUCACCCAUGUGGGUUGCGGUAUCGAGAAGGUAAAUUACUAG [JL SSNG2 1.47] (Eterna round: R96, puzzle: Same State NG 2)
A: 137

Q: Next sequence: GGAGCCGGUACUGAGGAUAUUCAUAUUAAAACAUGAGGAUCACCCAUGUAGGCCAGAAGGCCUUGGGAGAAGGCAGACCAGCUCG [Atgexeedri] (Eterna round: R96, puzzle: Same State 2)
A: 18

Q: Also need GUAGCAUACCGAGGAUAUUCAUAUUAUAAACAUGAGGAUCACCCAUGUGGCCGAUUACGGCCUUGGGAGAAGGCGGAAUGCUAC [Xeonanis - 20 Mod17] (Eterna round: R96, puzzle: Same State NG 2) , thanks.
A: 44.6

Provenance of the data: the supplement of paper PMC9170038
